Test system: MDA-MB-231 cells
assay method text: Cell survival/growth assay (Coulter cell count), MDA-MB-231 cells;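 also: cells grown in DMEM with 5% FBS, vehicle control was an equal volume of DMSO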
Assay type: cell-based
measurement parameters: Homo sapiens, 120 h; MDA-MB-231, 10 μM, 5 days; treated/vehicle cell number ratio; read-out: Survival Rate (%) 10 μM
quantity measured: viability at 10 µM (%)

molecule: CCn1ncc2c(NNS(=O)(=O)c3ccc(C)cc3)ncnc21
quantity measured: viability at 10 µM
numeric readout: 72.8

molecule: Clc1ncnc2c1cnn2Cc1ccccc1
quantity measured: viability at 10 µM
numeric readout: 75.7

molecule: CCn1ncc2c(NNS(=O)(=O)c3ccc([N+](=O)[O-])cc3)ncnc21
quantity measured: viability at 10 µM
numeric readout: 68

molecule: CCn1ncc2c(NN)ncnc21
quantity measured: viability at 10 µM
numeric readout: 27.8

molecule: C=CCNC1=C2C[C@@H](C)C[C@H](OC)[C@H](O)[C@@H](C)/C=C(\C)[C@H](OC(N)=O)[C@@H](OC)/C=C\C=C(/C)C(=O)NC(=CC1=O)C2=O [Compound 17-AAG, reference compound]
quantity measured: viability at 10 µM
numeric readout: 4.8

molecule: CCn1ncc2c(NNS(=O)(=O)c3ccccc3)ncnc21
quantity measured: viability at 10 µM
numeric readout: 74.7

molecule: O=S(=O)(NCCNc1ncnc2c1cnn2Cc1ccccc1)c1ccccc1
quantity measured: viability at 10 µM
numeric readout: 58.4

molecule: Oc1ncnc2[nH]ncc12 [allopurinol, 4-hydroxyl-1H-pyrazolo[3,4-d]pyrimidine]
quantity measured: viability at 10 µM
numeric readout: 51.7

molecule: CCn1ncc2c(NNC(C)=O)ncnc21
quantity measured: viability at 10 µM
numeric readout: 61.3

molecule: CCn1ncc2c(Cl)ncnc21
quantity measured: viability at 10 µM
numeric readout: 67

molecule: NCCNc1ncnc2c1cnn2Cc1ccccc1
quantity measured: viability at 10 µM
numeric readout: 57.5

molecule: O=S(=O)(NCCNc1ncnc2c1cnn2Cc1ccccc1)c1ccc(Br)cc1
quantity measured: viability at 10 µM
numeric readout: 78.5

molecule: CCOC(=O)Cn1ncc2c(Nc3ccc(NC(=O)CCl)cc3)ncnc21
quantity measured: viability at 10 µM
numeric readout: 1
